FYI, the data here is from paper PMC12592502.

Tested on: A. baumannii ATCC 19606
Protocol Text: MIC, broth microdilution (CLSI)
Assay type: cell-based, Acinetobacter baumannii
Experimental Parameters: Acinetobacter baumannii, ATCC19606, ID-MHBCA + 1 µg/mL supplemental iron; read-out: MIC
Protocol: All bacterial strains (see description and sources Table S1) were stored at −80 °C, and grown on tryptone soya agar (TSA) at 35 °C. […] Minimal inhibitory concentrations (MICs) were performed using a broth microdilution technique according to the Clinical and Laboratory Standards Institute (CLSI) guidelines. MICs were determined in MHBCA and in ID-MHBCA. To check the impact of β-lactamases, MICs in the presence of a β-lactamase inhibitor were also determined. […]
Readout Label: MIC (µM)
Number in µM, nothing else.

Q: Fill in the recorded MIC for this compound, with A. baumannii ATCC 19606 as test system: O=C(CN(CCCCNC(=O)c1cccc(O)c1O)C(=O)c1cccc(O)c1O)NC(C(=O)NC1C(=O)N2C(C(=O)O)=C(Cl)CCC12)c1ccccc1 (centres unmarked)
Result: 0.4

Q: Fill in the recorded MIC for this compound, with A. baumannii ATCC 19606 as test system: CC1(C)SC2C(NC(=O)C(NC(=O)CN(CCCCNC(=O)c3cccc(O)c3O)C(=O)c3cccc(O)c3O)c3ccccc3)C(=O)N2C1C(=O)O (centres unmarked)
Result: 1.6

---

Tested on: E. coli ΔfhuA
Protocol Text: MIC, Keio mutant
Format: cell-based, Escherichia coli
Experimental Parameters: Escherichia coli, ID-MHBCA
Readout Label: MIC (µM)
Number in µM, nothing else.

Q: Fill in the recorded MIC for this compound, with E. coli ΔfhuA as test system: N[C@@H](C(=O)N[C@@H]1C(=O)N2C(C(=O)O)=C(Cl)CS[C@H]12)c1ccccc1 [CEF, cefaclor, reference compound]
Result: 13

Q: Fill in the recorded MIC for this compound, with E. coli ΔfhuA as test system: CC1(C)S[C@@H]2[C@H](NC(=O)[C@H](N)c3ccccc3)C(=O)N2[C@H]1C(=O)O [AMP, ampicillin, reference compound]
Result: 25

Q: Fill in the recorded MIC for this compound, with E. coli ΔfhuA as test system: O=C(CN(CCCCNC(=O)c1cccc(O)c1O)C(=O)c1cccc(O)c1O)NC(C(=O)NC1C(=O)N2C(C(=O)O)=C(Cl)CCC12)c1ccccc1 (centres unmarked)
Result: 0.024

Q: Fill in the recorded MIC for this compound, with E. coli ΔfhuA as test system: CC1(C)SC2C(NC(=O)C(NC(=O)CN(CCCCNC(=O)c3cccc(O)c3O)C(=O)c3cccc(O)c3O)c3ccccc3)C(=O)N2C1C(=O)O (centres unmarked)
Result: 0.1

---

Tested System: PBP1a (Acinetobacter baumannii, UniProt A0ABX6CK30)
pIC50: −log10 of the molar value.
Readout Label: pIC50

Q: Report pIC50 for N[C@@H](C(=O)N[C@@H]1C(=O)N2C(C(=O)O)=C(Cl)CC[C@H]12)c1ccccc1 [LOR, loracarbef, reference compound] please.
Result: < 4.30

---

Tested System: PBP4 (Escherichia coli, UniProt P24228)
Construct: using bacterial membranes as the source of PBPs; endogenous in cells; host or cells: E. coli MC4100 membrane preparation
Protocol Text: Membrane PBP binding assay, competition with Bocillin FL
Parameters: species or system E. coli MC4100
Experimental Parameters: read-out: IC50 PBP4; E. coli MC4100 membranes
Description: Membrane extracts containing PBPs were obtained as described above. Briefly, all species were grown in 1 L of TSB until the OD600 reached 0.9. The washed pellet was incubated with lysozyme (400 μg/mL), DNase (10 μg/mL) RNase(10 μg/mL) and anti-protease cocktail (200 mg/20 mL). […] The protein concentration in the membrane preparations was determined with the Micro BCA TM Protein Assay Kit (Thermo Fisher Scientific, Rockford, IL) using bovine serum albumin as a standard. […]
Readout Label: pIC50
Just the number, please; pIC50 means minus log10 of the concentration in mol/L.

Q: Fill in the recorded pIC50 for this molecule, with PBP4 (Escherichia coli, UniProt P24228) as test system: O=C(CCC(=O)N(CCCCNC(=O)c1cccc(O)c1O)CCCNC(=O)c1cccc(O)c1O)NCCCCCN(O)C(=O)CCCC(=O)NC(C(=O)NC1C(=O)N2C(C(=O)O)=C(Cl)CSC12)c1ccccc1 (stereo not shown)
Result: 5.07
